Tested on: MALME-3M melanoma
Assay: NCI tumour cell line growth inhibition, 48 h

{"compound": "O=C(CCc1cccc(O)c1)NCCCNC(=O)CCc1cccc(O)c1", "assay-target": "MALME-3M melanoma", "TGI": "> 100 µM"}
{"compound": "CC(C)C1=C2CCC3(C)C(CCC4C5C6OCC5(CCC6(C)C)CCC43C)C2(C)CC1 (stereo not drawn)", "assay-target": "MALME-3M melanoma", "TGI": "38.6 µM"}
{"compound": "COC(=O)C1=C(O)C(C(=O)OC)[C@@]2(O)[C@@H](C(=O)OC)[C@H](C)[C@@H](C)[C@@H]1[C@@H]2C(=O)OC (stereo partly drawn)", "assay-target": "MALME-3M melanoma", "TGI": "> 100 µM"}
{"compound": "Oc1ccc(Br)cc1C=Nc1ccc(N=Cc2cc(Br)ccc2O)cc1", "assay-target": "MALME-3M melanoma", "TGI": "> 100 µM"}
{"compound": "CC(C)(C)c1ccc(OCC(=O)O)c(Cl)c1", "assay-target": "MALME-3M melanoma", "TGI": "> 100 µM"}
{"compound": "Cc1c2ccncc2c(C)c2c1[nH]c1ccccc12", "assay-target": "MALME-3M melanoma", "TGI": "4.92 µM"}
{"compound": "Cn1c(=O)c2c(ncn2CC(=O)Nc2ccc(-c3ccccc3)nn2)n(C)c1=O", "assay-target": "MALME-3M melanoma", "TGI": "> 100 µM"}
{"compound": "O=C1CC(Sc2nc3ccc(I)cc3c(=O)n2Cc2ccccc2)C(=O)NN1 (stereo not drawn)", "assay-target": "MALME-3M melanoma", "TGI": "33.1 µM"}
{"compound": "O=C(O)CC(NC(=O)/C(=C/c1ccccc1O)NC(=O)c1ccccc1)C(=O)O (stereo not drawn)", "assay-target": "MALME-3M melanoma", "TGI": "> 100 µM"}
{"compound": "COc1ccc(Cc2cnc(NC(=O)c3ccc4c(c3)OCCO4)s2)cc1", "assay-target": "MALME-3M melanoma", "TGI": "> 61.6 µM"}
{"compound": "C=C(C)[C@@]1(O[Si](C)(C)C)CCCC[C@@H]1CC(Sc1ccccc1)Sc1ccccc1", "assay-target": "MALME-3M melanoma", "TGI": "24.4 µM"}
{"compound": "O/C(=C\\c1nc2ccccc2nc1NC12CC3CC(CC(C3)C1)C2)c1ccc(Br)cc1", "assay-target": "MALME-3M melanoma", "TGI": "> 10 µM"}
{"compound": "N#Cc1c(C#N)c(-c2ccccc2)n(-c2ccccc2)c1N", "assay-target": "MALME-3M melanoma", "TGI": "> 100 µM"}
{"compound": "CN1CCN(c2ccc(Nc3ncc4cc(C#N)c(=O)n(C5CCCC5)c4n3)cc2)CC1", "assay-target": "MALME-3M melanoma", "TGI": "> 100 µM"}
{"compound": "COC(=O)C1(Cc2ccc3c(c2)CCC3)Cc2ccccc2C1=O (stereo not drawn)", "assay-target": "MALME-3M melanoma", "TGI": "> 100 µM"}
{"compound": "COc1cc2c(c(O)c1O)-c1ccc(OC)c(=O)cc1C(NC(C)=O)CC2 (stereo not drawn)", "assay-target": "MALME-3M melanoma", "TGI": "> 100 µM"}
{"compound": "O=C(c1ccccc1)N1C(=S)N=C(Nc2ccccc2)C1=Nc1ccccc1", "assay-target": "MALME-3M melanoma", "TGI": "> 100 µM"}
{"compound": "CCCCc1c2c(nc3c1CCC/C3=C\\c1ccccc1)/C(=C/c1ccccc1)CCC2", "assay-target": "MALME-3M melanoma", "TGI": "> 100 µM"}
{"compound": "Cc1ccc(Nc2nnc(-c3ccc4c(c3)OCO4)o2)c(C)c1", "assay-target": "MALME-3M melanoma", "TGI": "> 100 µM"}
{"compound": "Nc1nc(N)c2cc(CNc3ccc(C(=O)NC(CC(=O)O)C(=O)O)c(Cl)c3)ccc2n1 (stereo not drawn)", "assay-target": "MALME-3M melanoma", "TGI": "> 500 µM"}
{"compound": "c1ccc(-c2cnc(-c3ccc(-c4ncc(-c5ccccc5)o4)cc3)o2)cc1", "assay-target": "MALME-3M melanoma", "TGI": "> 100 µM"}
{"compound": "CN(C)P(=O)(Oc1occc1C(O)Cc1ccccc1)N(C)C (stereo not drawn)", "assay-target": "MALME-3M melanoma", "TGI": "> 100 µM"}
{"compound": "COc1cc(OCc2ccc3nc(OC)c(OC)nc3c2)cc(OC)c1OC", "assay-target": "MALME-3M melanoma", "TGI": "> 10 µM"}
{"compound": "CC1C(c2ccc3c(c2)OCO3)c2cc3c(cc2OC1N1CCOCC1)OCO3 (stereo not drawn)", "assay-target": "MALME-3M melanoma", "TGI": "97.6 µM"}
{"compound": "Nc1nc(Nc2ccc(Cl)cc2)sc1C(=O)c1cccs1", "assay-target": "MALME-3M melanoma", "TGI": "> 100 µM"}
{"compound": "Cc1cc(/N=C/c2ccc(C#N)cc2)n(-c2ccccc2)n1", "assay-target": "MALME-3M melanoma", "TGI": "> 100 µM"}
{"compound": "COc1cc(C=C2C(=O)NC(=S)NC2=O)cc(OC)c1OC", "assay-target": "MALME-3M melanoma", "TGI": "> 100 µM"}
{"compound": "C[C@]12CC[C@@H]3c4ccc(O)c([N+](=O)[O-])c4CC[C@H]3[C@@H]1CC[C@@H]2NS(=O)(=O)c1cccc(Br)c1", "assay-target": "MALME-3M melanoma", "TGI": "5.4 µM"}
{"compound": "CC12CC1C(c1cccc([N+](=O)[O-])c1)(c1cccc([N+](=O)[O-])c1)N=N2 (stereo not drawn)", "assay-target": "MALME-3M melanoma", "TGI": "53.1 µM"}
{"compound": "COc1cc2c(cc1OC)C13CC[N+]4(C)CC5=CCOC6CC(=O)N2C1C6C5CC34[O-] (stereo not drawn)", "assay-target": "MALME-3M melanoma", "TGI": "> 100 µM"}
{"compound": "COC(=O)C1OC(O[C@H]2CC[C@]3(C)[C@H]4CC=C5[C@@H]6CC(C)(C)CC[C@]6(C(=O)OC6OCC(O)C(O)C6OC6OC(C)C(OC7OCC(OC8OCC(O)C(O)C8O)C(O)C7O)C(O)C6O)[C@H](O)C[C@@]5(C)[C@]4(C)CC[C@H]3C2(C)C)C(O)C(O)C1O (stereo partly drawn)", "assay-target": "MALME-3M melanoma", "TGI": "14.5 µM"}
{"compound": "OCC(O)C(O)C(O)/C=N/Nc1nc(O)c(/C=C2\\C=Nc3ccccc32)[nH]1 (stereo not drawn)", "assay-target": "MALME-3M melanoma", "TGI": "> 100 µM"}
{"compound": "CCCCN(CCCC)C(=C(C(Cl)=C(Cl)Cl)[N+](=O)[O-])N(CCCC)CCCC", "assay-target": "MALME-3M melanoma", "TGI": "> 100 µM"}
